Documented solubility across a set of molecules
Assay notes: Solubility of the compound in simulated intestinal fluid at upto 200 uM by HPLC-UV analysis
Assay type: physicochemical
Write the number in µM without appending the unit.

Example entries begin here.
Compound smiles	Attribute measured	Display unit	Readout number
CCCn1c(=O)[nH]c(=O)c2c1nc(Sc1nc3ccccc3[nH]1)n2Cc1ccccc1	solubility	µM	150
O=c1[nH]c(=O)n(C2CC2)c2nc(Cc3nc4cc5c(cc4[nH]3)OCO5)n(Cc3ccccc3)c12	solubility	µM	191
O=c1[nH]c(=O)n(C2CC2)c2nc(Cc3nc4ccc(OCCO)cc4[nH]3)n(Cc3ccccc3)c12	solubility	µM	189
CCn1c(=O)[nH]c(=O)c2c1nc(Sc1nc3ccccc3[nH]1)n2Cc1ccccc1	solubility	µM	176
CCn1c(=O)[nH]c(=O)c2c1nc(Cc1nc3ccccc3[nH]1)n2Cc1ccccc1	solubility	µM	158

Proceeding to the next molecule to report its solubility.
input: // fetch solubility given entry COc1ccc2nc(Cc3nc4c(c(=O)[nH]c(=O)n4C4CC4)n3Cc3ccccc3)[nH]c2c1
output: 195

---

Documented half-life across a set of compounds
Assay notes: Metabolic stability in rat hepatocytes assessed as half life
Assay type: ADME, cell-based, Hepatocyte
Write the number in h without appending the unit.

Compound smiles	Display unit	half-life
CCn1c(=O)[nH]c(=O)c2c1nc(Sc1nc3ccccc3[nH]1)n2Cc1ccccc1	h	0.167

Proceeding to the next compound to report its half-life.
input: // fetch half-life given entry CCn1c(=O)[nH]c(=O)c2c1nc(Cc1nc3ccccc3[nH]1)n2Cc1ccccc1
output: 1

---

Assay notes: Metabolic stability in rat hepatocytes assessed as half life
Format: ADME, cell-based, Hepatocyte
Documented half-life across a set of compounds

Compound smiles	Attribute measured	Result
N#Cc1ccc2nc(Cc3nc4c(c(=O)[nH]c(=O)n4C4CC4)n3Cc3ccccc3)[nH]c2c1	half-life	> 1 h
O=c1[nH]c(=O)n(C2CC2)c2nc(Cc3nc4ccc(OCCO)cc4[nH]3)n(Cc3ccccc3)c12	half-life	> 1 h

Proceeding to the next compound to report its half-life.
input: // fetch half-life given entry O=c1[nH]c(=O)n(C2CC2)c2nc(Cc3nc4ccc(F)cc4[nH]3)n(Cc3ccccc3)c12
output: > 1 h
